target: GmDREB2A(273–290) (Glycine max (soybean)); test: ITC; RST domain in the syringe (100–300 µM) titrated into the TF fragment in the cell (10–30 µM); 25 °C; 50 mM Hepes, pH 7.4, 100 mM NaCl; one set of sites model
Property Name: pKd
API: returns pKd as number; meaning -log10 of concentration in mol/L.

Fill in the blank: the reported pKd of AtRCD1-RST(499–572) (domain or fragment, Arabidopsis thaliana, UniProt Q8RY59 499-572, looked up, RST domain of Radical-Induced Cell Death1 (RCD1), Arabidopsis thaliana, residues 499-572; also called AtRST(499–572); Arabidopsis RST domain) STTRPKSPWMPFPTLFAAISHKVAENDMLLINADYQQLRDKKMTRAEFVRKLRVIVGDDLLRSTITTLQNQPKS is ____. 6.40
